Every entry's value here was drawn from paper PMC6316393.

- Tested on: A549 (non-small-cell lung cancer)
- assay_protocol: MTT cytotoxicity assay, A549
- setup_conditions: Homo sapiens, A549, read-out: Cytotoxicity IC50, A549, A549 cell line, MTT assay
reported_metric: IC50 (µM)
The figure you give is taken to be in µM; do not add the unit.

Given the entry CC(=O)O[C@@H]1CC2[C@@]3(C)CCCC(C)(C)C3CC[C@@]2(C)C2CC=C3C(=O)OC(O)C3[C@]21C (stereo partly drawn) [Compound 19, 12-epi-scalarin] , what IC50 was observed with A549 (non-small-cell lung cancer)?
60.8

Given the entry COC1OC(C2=CC(=O)OC2O)CC=C1CCC=C(C)CCC1=C(C)CCCC1(C)C (centres unmarked) [Compound 8, 24-O-methylmanoalide] , what IC50 was observed with A549 (non-small-cell lung cancer)?
16.8

For the next question, use this compound.
Given the entry COC1OC(=O)C=C1C(O)CC=C(C=O)CCC=C(C)CCC1=C(C)CCCC1(C)C (centres unmarked) [Compound 3, seco-manoalide-25-methyl ether] , what IC50 was observed with A549 (non-small-cell lung cancer)?
41.1

###

- System: MDA-MB-231 (hormone independent breast cancer)
- assay_protocol: MTT cytotoxicity assay, MDA-MB-231
- setup_conditions: Homo sapiens, MDA-MB-231, read-out: Cytotoxicity IC50, MDA-MB-231
reported_metric: IC50 (µM)
The figure you give is taken to be in µM; do not add the unit.

Given the entry CC1=C(CC/C(C)=C/CC/C(C=O)=C\C[C@@H](O)C2=CC(=O)OC2O)C(C)(C)CCC1 (some centres unmarked) [Compound 14, seco-manoalide] , what IC50 was observed with MDA-MB-231 (hormone independent breast cancer)?
84.1

###

- Test system: HeLa (human cervical carcinoma)
- assay_protocol: MTT cytotoxicity assay, HeLa
- setup_conditions: Homo sapiens, HeLa, read-out: Cytotoxicity IC50, HeLa
- Protocol: The SI value is the ratio of IC50 of normal cell (MRC-5) and IC50 of cancer cell line. Cytotoxic activity for adhesive cell lines including HepG2, HeLa, HuCCA-1, A549, H69AR, KB, T47D, MDA-MB-231, and MRC-5 cell lines were evaluated with the 3-(4,5-dimethylthiazol-2-yl)-2,5-diphenyltetrazoliumbromide (MTT) assay. […]
reported_metric: IC50 (µM)
The figure you give is taken to be in µM; do not add the unit.

Which IC50 is reported for this molecule? CC1=C(CC/C(C)=C/CC/C(C=O)=C\C[C@@H](O)C2=CC(=O)OC2O)C(C)(C)CCC1 (some centres unmarked) [Compound 14, seco-manoalide]
21.8

For the next question, use this molecule.
Which IC50 is reported for this molecule? CC1=C(CC/C(C)=C/CCC2=CC[C@H](C3=CC(=O)O[C@H]3O)O[C@H]2O)C(C)(C)CCC1 [Compound 11, manoalide]
87

###

- Tested on: MRC-5 (normal embryonic lung cell)
- assay_protocol: MTT cytotoxicity assay, MRC-5 normal cells
- setup_conditions: read-out: Cytotoxicity IC50, MRC-5; MRC-5 normal cell line, MTT assay
reported_metric: IC50 (µM)
The figure you give is taken to be in µM; do not add the unit.

Which IC50 is reported for this compound? COC1OC(C2=CC(=O)OC2O)CC=C1CCC=C(C)CCC1=C(C)CCCC1(C)C (stereo not shown) [Compound 9, 24-O-methylmanoalide]
10.8

###

IC50: recorded values
- System: MDA-MB-231 (hormone independent breast cancer)
- assay_protocol: MTT cytotoxicity assay, MDA-MB-231
- setup_conditions: Homo sapiens, MDA-MB-231, read-out: Cytotoxicity IC50, MDA-MB-231, MDA-MB-231 cell line, MTT assay
The figure you give is taken to be in µM; do not add the unit.

Which IC50 is reported for this molecule? COc1cccc2c1C(=O)c1c(O)c3c(c(O)c1C2=O)C[C@@](O)(C(=O)CO)C[C@@H]3O[C@H]1C[C@H](N)[C@H](O)[C@H](C)O1 [Doxorubicin, reference compound]
1.64

Others:
Which IC50 is reported for this molecule? CC(=O)O[C@H]1C[C@H]2[C@]3(C)CC[C@H]4C(C)(C)CCC[C@]4(C)[C@H]3C[C@@H](O)[C@]2(C)c2cocc21 [Compound 15, scalarafuran]
14

Which IC50 is reported for this molecule? CC(=O)O[C@@H]1CC2[C@@]3(C)CCCC(C)(C)C3CC[C@@]2(C)C2CCC3=C(C(=O)OC3)[C@]21C (stereo partly shown) [Compound 17, 12-acetylscalarolide]
60.8

###

- System: MOLT-3 (acute lymphoblastic leukemia)
- assay_protocol: XTT cytotoxicity assay, MOLT-3
- setup_conditions: read-out: Cytotoxicity IC50, MOLT-3; MOLT-3 cell line, XTT assay
reported_metric: pIC50
Just the number, please; pIC50 means minus log10 of the concentration in mol/L.

Which pIC50 is reported for this compound? COC1OC(C2=CC(=O)OC2O)CC=C1CCC=C(C)CCC1=C(C)CCCC1(C)C (stereo not shown) [Compound 9, 24-O-methylmanoalide]
5.89

###

IC50: recorded values
- Test system: A549 (non-small-cell lung cancer)
- assay_protocol: MTT cytotoxicity assay, A549
- setup_conditions: Homo sapiens, A549, read-out: Cytotoxicity IC50, A549, A549 cell line, MTT assay
- Procedure: The SI value is the ratio of IC50 of normal cell (MRC-5) and IC50 of cancer cell line. Cytotoxic activity for adhesive cell lines including HepG2, HeLa, HuCCA-1, A549, H69AR, KB, T47D, MDA-MB-231, and MRC-5 cell lines were evaluated with the 3-(4,5-dimethylthiazol-2-yl)-2,5-diphenyltetrazoliumbromide (MTT) assay. […]

Use the examples below as a reference point.
Which IC50 is reported for this compound? CC1=C(CC[C@@](C)(O)[C@@H]2CCC(=O)O2)C(C)(C)CCC1
> 50 µg/mL

Which IC50 is reported for this compound? CC1=C(CC/C(C)=C/CC/C(=C/C[C@@H](O)C2=CC(=O)OC2)CO)C(C)(C)CCC1 [Compound 10, luffariolide B]
> 50 µg/mL

Which IC50 is reported for this compound? COc1cccc2c1C(=O)c1c(O)c3c(c(O)c1C2=O)C[C@@](O)(C(=O)CO)C[C@@H]3O[C@H]1C[C@H](N)[C@H](O)[C@H](C)O1 [Doxorubicin, reference compound]
0.35 µM

Which IC50 is reported for this compound? COC(=O)c1cc2c(cn1)[nH]c1ccc(O)cc12
> 50 µg/mL

Others:
Which IC50 is reported for this compound? CC1=C(CC/C(C)=C/CC/C(=C/CC2OC(=O)C=C2CO)CO)C(C)(C)CCC1 (stereo not drawn) [Compound 13, (6Z)-neomanoalide]
114 µM

Which IC50 is reported for this compound? CC1(C)CCC[C@@]2(C)C1CC[C@]1(C)C2C[C@@H](O)[C@]2(C)C3C(=CCC12)C(=O)OC3O (stereo partly drawn) [Compound 20, 12-O-deacetyl-12-epi-scalarin]
73.4 µM

###

pIC50: recorded values
- System: HuCCA-1 (human chlolangiocarcinoma)
- assay_protocol: MTT cytotoxicity assay, HuCCA-1
- setup_conditions: Homo sapiens, HuCC-A1, read-out: Cytotoxicity IC50, HuCCA-1, HuCCA-1 cell line, MTT assay
Just the number, please; pIC50 means minus log10 of the concentration in mol/L.

Use the examples below as a reference point.
Given the entry CC1(C)CCC[C@@]2(C)C1CC[C@]1(C)C2C[C@@H](O)[C@]2(C)C3COC(=O)C3=CCC12 (stereo partly drawn) [Compound 18, 12-epi-O-deacetyl-19-deoxyscalarin] , what pIC50 was observed with HuCCA-1 (human chlolangiocarcinoma)?
4.38

Given the entry CC(=O)O[C@@H]1CC2[C@@]3(C)CCCC(C)(C)C3CC[C@@]2(C)C2CC=C3C(=O)OC(O)C3[C@]21C (stereo partly drawn) [Compound 19, 12-epi-scalarin] , what pIC50 was observed with HuCCA-1 (human chlolangiocarcinoma)?
4.22

Others:
Given the entry CC(=O)O[C@H]1C[C@H]2[C@]3(C)CC[C@H]4C(C)(C)CCC[C@]4(C)[C@H]3C[C@@H](O)[C@]2(C)c2cocc21 , what pIC50 was observed with HuCCA-1 (human chlolangiocarcinoma)?
4.31

###

- Tested on: MDA-MB-231 (hormone independent breast cancer)
- assay_protocol: MTT cytotoxicity assay, MDA-MB-231
- setup_conditions: read-out: Cytotoxicity IC50, MDA-MB-231; MDA-MB-231 cell line, MTT assay
reported_metric: pIC50
Just the number, please; pIC50 means minus log10 of the concentration in mol/L.

Which pIC50 is reported for this molecule? COC1OC(C2=CC(=O)OC2O)CC=C1CCC=C(C)CCC1=C(C)CCCC1(C)C (centres unmarked) [Compound 8, 24-O-methylmanoalide]
4.40

Others:
Which pIC50 is reported for this molecule? COC1OC(C2=CC(=O)OC2O)CC=C1CCC=C(C)CCC1=C(C)CCCC1(C)C (centres unmarked) [Compound 9, 24-O-methylmanoalide]
4.73
